Method summary: Pharmacokinetic assessment in male Wistar rats (i.v.)
Format: in vivo, rat
Stated conditions: rat, liver, intravenous, 13c 1.5 mg/kg i.v., 0.5 h, read-out: Liver concentration of 13c
Measure name: concentration at 0.5 h (ng/g)

compound="CC(=O)N[C@@H](CCC(=O)NCCOC(=O)OCCN1C(=O)[C@@H](NC(=O)[C@@](C)(O)C(=O)NCC(F)(F)C(F)(F)F)[C@@H](C)Oc2ccc(F)cc21)C(=O)O [Compound 13c]" experimental_value=32.3

###

Method summary: Pharmacokinetic assessment in C57BL/6 healthy wild-type mice (i.p.)
Assay type: in vivo, mouse
Stated conditions: male, mouse, kidney, ip; C57BL/6 mice, 10 mg/kg i.p., 4 h; read-out: Kidney concentration of administered compound
Method: For PK evaluation, the compounds were administered i.p to male C57BL/6 mice in suspension (gelatine/saline 7.5%/0.62% in water) using an administration volume of 4 mL/kg. […] All samples were analyzed using protein precipitation followed by LC-MS/MS analysis. […] 10 μL supernatant was analyzed by LC/MS analysis. […] Compounds mass transitions monitored were m/z 320.7 to 119.9. PK parameters for all studies were calculated using Phoenix WinNonlin Software. […]
Measure name: concentration at 4 h

compound="CC(=O)N[C@@H](CCC(=O)O)C(=O)NCCNC(=O)OCCN1C(=O)[C@@H](NC(=O)[C@@](C)(O)C(=O)NCC(F)(F)C(F)(F)F)[C@@H](C)Oc2ccc(F)cc21 [Compound 15a]" experimental_value="81 ng/g"
compound="CC(=O)N[C@@H](CCC(=O)NCCNC(=O)OCCN1C(=O)[C@@H](NC(=O)[C@@](C)(O)C(=O)NCC(F)(F)C(F)(F)F)[C@@H](C)Oc2ccc(F)cc21)C(=O)O [Compound 13a]" experimental_value="16.6 ng/g"
compound="C[C@H]1Oc2ccc(F)cc2N(CCOC(=O)NCCN)C(=O)[C@H]1NC(=O)[C@@](C)(O)C(=O)NCC(F)(F)C(F)(F)F.Cl [Compound 11a, hydrochloride]" experimental_value="1200 ng/g"

###

Method summary: Distribution in plasma, liver and kidney in the aristolochic acid mouse model (repeated i.p.)
Format: in vivo
Stated conditions: male, C57BL/6, mouse, liver, ip, 30 mg/kg, mice, 13a 30 mg/kg b.i.d. i.p. repeated, without AA (Table 6B), 13 h; read-out: Liver concentration of 13a
Method: For PK evaluation, the compounds were administered i.p to male C57BL/6 mice in suspension (gelatine/saline 7.5%/0.62% in water) using an administration volume of 4 mL/kg. […] All samples were analyzed using protein precipitation followed by LC-MS/MS analysis. […] 10 μL supernatant was analyzed by LC/MS analysis. […] Compounds mass transitions monitored were m/z 320.7 to 119.9. PK parameters for all studies were calculated using Phoenix WinNonlin Software. […]
Measure name: concentration at 13 h

molecule="CC(=O)N[C@@H](CCC(=O)NCCNC(=O)OCCN1C(=O)[C@@H](NC(=O)[C@@](C)(O)C(=O)NCC(F)(F)C(F)(F)F)[C@@H](C)Oc2ccc(F)cc21)C(=O)O [Compound 13a]" experimental_value="19 ng/g"

###

Method summary: Pharmacokinetic assessment in C57BL/6 healthy wild-type mice (i.p.)
Assay type: in vivo, mouse
Stated conditions: male, mouse, liver, ip; C57BL/6 mice, 10 mg/kg i.p., 0.5 h; read-out: Liver concentration of administered compound
Where a name gives a salt, the structure may show the parent alone.
// values below are reported concentration at 0.5 h
Measure name: concentration at 0.5 h (ng/g)

molecule="CC(=O)N[C@@H](CCC(=O)NCCNC(=O)OCCN1C(=O)[C@@H](NC(=O)[C@@](C)(O)C(=O)NCC(F)(F)C(F)(F)F)[C@@H](C)Oc2ccc(F)cc21)C(=O)O [Compound 13a]" measure_name="concentration at 0.5 h" units_label=ng/g experimental_value=3570
molecule="C[C@H]1Oc2ccc(F)cc2N(CCOC(=O)NCCN)C(=O)[C@H]1NC(=O)[C@@](C)(O)C(=O)NCC(F)(F)C(F)(F)F.Cl [Compound 11a, hydrochloride]" measure_name="concentration at 0.5 h" units_label=ng/g experimental_value=70000
molecule="CC(=O)N[C@@H](CCC(=O)O)C(=O)NCCNC(=O)OCCN1C(=O)[C@@H](NC(=O)[C@@](C)(O)C(=O)NCC(F)(F)C(F)(F)F)[C@@H](C)Oc2ccc(F)cc21 [Compound 15a]" measure_name="concentration at 0.5 h" units_label=ng/g experimental_value=7220
molecule="C[C@H]1Oc2ccc(F)cc2N(CCOC(=O)NCCNC(=O)[C@@H](N)CCC(=O)O)C(=O)[C@H]1NC(=O)[C@@](C)(O)C(=O)NCC(F)(F)C(F)(F)F [Compound 15b, hydrochloride]" measure_name="concentration at 0.5 h" units_label=ng/g experimental_value=277

###

Method summary: Pharmacokinetic assessment in male Wistar rats (i.v.)
Format: in vivo, rat
Stated conditions: rat, liver, iv, 13a 1.6 mg/kg i.v., 0.5 h, read-out: Liver concentration of 13a
Measure name: concentration at 0.5 h (ng/g)

compound="CC(=O)N[C@@H](CCC(=O)NCCNC(=O)OCCN1C(=O)[C@@H](NC(=O)[C@@](C)(O)C(=O)NCC(F)(F)C(F)(F)F)[C@@H](C)Oc2ccc(F)cc21)C(=O)O [Compound 13a]" experimental_value=33.4

###

Method summary: Pharmacokinetic assessment in male Wistar rats (i.v.)
Assay type: in vivo, rat
Stated conditions: rat, liver, iv, 8 3.5 mg/kg i.v., 1.25 h, read-out: Liver concentration of 8
Measure name: concentration at 1.25 h (ng/g)

structure=C[C@H]1Oc2ccc(F)cc2N(CCO)C(=O)[C@H]1NC(=O)[C@@](C)(O)C(=O)NCC(F)(F)C(F)(F)F measure_name="concentration at 1.25 h" experimental_value=852

###

Method summary: Pharmacokinetic assessment in male Wistar rats (i.v.)
Assay type: in vivo, rat
Stated conditions: rat, kidney, iv, 8 3.5 mg/kg i.v., 0.25 h, read-out: Kidney concentration of 8
Measure name: concentration at 0.25 h (ng/g)

molecule="C[C@H]1Oc2ccc(F)cc2N(CCO)C(=O)[C@H]1NC(=O)[C@@](C)(O)C(=O)NCC(F)(F)C(F)(F)F [Compound 8]" experimental_value=3320

###

Method summary: Pharmacokinetic assessment in C57BL/6 healthy wild-type mice (i.p.)
Assay type: in vivo, mouse
Stated conditions: male, mouse, plasma, ip; C57BL/6 mice, 10 mg/kg i.p., 0.5 h; read-out: Plasma concentration of administered compound
Structures can show the parent of a compound that is named as a salt.
Catalogue of concentration at 0.5 h readings, one per entry.
Measure name: concentration at 0.5 h

molecule="CC(=O)N[C@@H](CCC(=O)O)C(=O)NCCNC(=O)OCCN1C(=O)[C@@H](NC(=O)[C@@](C)(O)C(=O)NCC(F)(F)C(F)(F)F)[C@@H](C)Oc2ccc(F)cc21 [Compound 15a]" experimental_value="573 ng/mL"
molecule="C[C@H]1Oc2ccc(F)cc2N(CCOC(=O)NCCNC(=O)[C@@H](N)CCC(=O)O)C(=O)[C@H]1NC(=O)[C@@](C)(O)C(=O)NCC(F)(F)C(F)(F)F [Compound 15b, hydrochloride]" experimental_value="3.67 ng/mL"
molecule="C[C@H]1Oc2ccc(F)cc2N(CCOC(=O)NCCN)C(=O)[C@H]1NC(=O)[C@@](C)(O)C(=O)NCC(F)(F)C(F)(F)F.Cl [Compound 11a, hydrochloride]" experimental_value="97.8 ng/mL"
molecule="CC(=O)N[C@@H](CCC(=O)NCCNC(=O)OCCN1C(=O)[C@@H](NC(=O)[C@@](C)(O)C(=O)NCC(F)(F)C(F)(F)F)[C@@H](C)Oc2ccc(F)cc21)C(=O)O [Compound 13a]" experimental_value="4.88 ng/mL"

###

Method summary: Distribution in plasma, liver and kidney in the aristolochic acid mouse model (repeated i.p.)
Format: in vivo
Stated conditions: male, C57BL/6, mouse, kidney, ip, 30 mg/kg, AA-exposed mice, 13a 30 mg/kg b.i.d. i.p. repeated, 13 h; read-out: Kidney concentration of 13a
Measure name: concentration at 13 h (ng/g)

molecule="CC(=O)N[C@@H](CCC(=O)NCCNC(=O)OCCN1C(=O)[C@@H](NC(=O)[C@@](C)(O)C(=O)NCC(F)(F)C(F)(F)F)[C@@H](C)Oc2ccc(F)cc21)C(=O)O [Compound 13a]" units_label=ng/g experimental_value=23

###

Method summary: Distribution in plasma, liver and kidney in the aristolochic acid mouse model (repeated i.p.)
Assay type: in vivo
Stated conditions: male, C57BL/6, mouse, plasma, ip, 10 mg/kg, AA-exposed mice, 11a 10 mg/kg b.i.d. i.p. repeated, 13 h; read-out: Plasma concentration of 11a
Measure name: concentration at 13 h (ng/mL)

molecule="C[C@H]1Oc2ccc(F)cc2N(CCOC(=O)NCCN)C(=O)[C@H]1NC(=O)[C@@](C)(O)C(=O)NCC(F)(F)C(F)(F)F.Cl [Compound 11a, hydrochloride]" experimental_value=7.2
